As shown below, each of these binders has a reported kon value.
Molecular target: T1, Human Siglec-15, His Tag (human Siglec-15 full-length extracellular domain linked with His tag) (human, UniProt Q6ZMC9 20-263)
T1 construct: Bought from ACROBiosystems; also called Siglec-15 protein; SG5-H52H3
T1 sequence: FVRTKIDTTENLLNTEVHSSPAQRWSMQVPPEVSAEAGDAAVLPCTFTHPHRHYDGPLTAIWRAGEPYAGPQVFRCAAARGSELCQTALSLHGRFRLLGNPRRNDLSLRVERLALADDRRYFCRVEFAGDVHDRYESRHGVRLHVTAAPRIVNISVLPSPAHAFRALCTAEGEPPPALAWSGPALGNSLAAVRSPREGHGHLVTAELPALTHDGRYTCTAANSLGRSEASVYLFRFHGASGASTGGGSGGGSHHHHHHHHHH
Assay: SPR Biacore, antibody captured by anti-human Fc on CM5, Siglec-15 protein as analyte
Entry rule: numbers only, all in M⁻¹ s⁻¹.

Known results for binders:
124B11F6 chimeric antibody (antibody, human IgG1, V domains shown, also called 124B11F6-mHL) VH: EVQLQQSGAELVRPGASVKLSCTASVFNIKDYYMHWVKQRTEQGLEWIGRIDPEDDKTKYAPKFQGKATITADTSSNTAYLHLSTLTSEDTAVYYCVRGWLGYIMDFWGQGTSVTVSS VL: QLVLTQSSSASFSLGASAKLTCTLSSQHSTYTIDWYQQQPLKPPKYVMELKEDGSHSTGDGIPDRFSGSSSGADRYLGISNIQPEDEAVYICGVGATIKEQFVYVFGGGTKVTVL ... 1.37e+06
21F6C6-hH2L4V (antibody, IgG1, V domains shown, Humanized; hIgG1, Kappa) VH: EVQLVESGGGLVKPGGSLRLSCAASGFTFSSYAMSWVRQAPGKGLEWVATISSGGSLIYYADSVTGRFTISRDNAKNTLYLQMNSLRAEDTAVYYCVRHGYYYGDSTLYYAMDYWGQGTTVTVSS VL: DIQMTQSPSSLSASVGDRVTITCRASQSVDYEGDSYMNWYQQKPGKAPKLLIYAASNLQSGVPSRFSGSGSGTDFTLTISSLQPEDFATYYCQQSNEAPLTFGQGTKLEIK ... 1.61e+06
174C11C9-hH3L3 (antibody, IgG1, V domains shown, Humanized; hIgG1, Kappa) VH: QVQLVQSGAEVKKPGASVKVSCKASGYIFTDYYMNWVRQAPGQGLEWIGVFNPYSGGISYAQKFKGRVTLTVDTSTSTAYMELSSLRSEDTAVYYCARDYYYLSSHGFYALDYWGQGTTVTVSS VL: DIQLTQSPSSLSASVGDRVTITCRASESVDSYGNSFIHWYQQKPGKAPKLLMYRASNLESGVPSRFSGSGSGTDFTLTISSLQPEDFATYYCQQSNEDPLTFGQGTKLEIK ... 785000

Please turn your attention to the following entry.
Qu. Please report the recorded kon for 21F6C6-hH1L1 (antibody, IgG1, V domains shown, Humanized; hIgG1 heavy chain constant region, Kappa light chain constant region) VH: EVQLVESGGGLVKPGGSLRLSCAASGFTFSSYAMSWVRQAPGKGLEWVATISSGGSLIYYPDSVTGRFTISRDNAKSTLYLQMNSLRAEDTAVYYCVRHGYYYGDSTLYYAMDYWGQGTTVTVSS VL: DIQLTQSPSSLSASVGDRATITCRASQSVDYDGDSYMNWYQQKPGKAPKLLIYAASNLESGIPARFSGSGSGTDFTLTISSVQPEDFATYYCQQSNEAPLTFGQGTKLEIK .
Ans. 4.23e+06
